- ASSAY SUMMARY: chemical genetic growth profiling, strain panel (AID 1159580);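 note: tested at 20 µM; growth read once vehicle control cultures reached saturation at 30 °C; 1 = growth at the plate median or of vehicle wells; lower values mean less growth of the strain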
- DETAILS: S. cerevisiae deletion strains, growth OD, locus YKL203C, strain TOR2, hits give low values
In all, about 5,500 compounds went through this assay and about 2,000 (36%) were called active. About 18% were inconclusive and are not listed. This is one part of the list.
Entries and their measured normalized growth follow.
Give only the figure.

Below: 6 compounds and their reported normalized growth.
>>> recorded_measurement("O=C(CSCc1nc(-c2ccc(Cl)cc2)cs1)N/N=C\\c1cccs1")
1
>>> recorded_measurement("CC(C)CSc1nnc(CSCc2nc(-c3ccc(Cl)cc3)cs2)n1C")
1.02
>>> recorded_measurement("N#Cc1c(Br)cnn1Cc1cc(C(F)(F)F)cc(C(F)(F)F)c1")
1
>>> recorded_measurement("N#CCCCCOc1ccc2c(=O)cc(-c3ccccc3)oc2c1")
1.01
>>> recorded_measurement("Cc1ccc2c(c1)CCCN2CC(=O)N(c1ccccc1)C1CCCCC1")
0.999
>>> recorded_measurement("Cc1ccc(C(O)(c2ccccc2)c2ccccc2)c2ccccc12")
1.01

Fill blank: measured normalized growth of the compound CC(O)(CNCc1ccc(Cl)cc1)CSc1ccccc1Cl (configuration not stated) is ____.
0.981

----------
The reader will find reported normalized growth values listed item by item below.
- ASSAY SUMMARY: chemical genetic growth profiling, strain panel (AID 1159580);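 note: tested at 20 µM; growth read once vehicle control cultures reached saturation at 30 °C; 1 = growth at the plate median or of vehicle wells; lower values mean less growth of the strain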
- DETAILS: S. cerevisiae deletion strains, growth OD, locus YJL168C, strain set2, hits give low values
The campaign covered roughly 5,500 compounds. About 2,000 (36%) were called active. Not shown: some 18% with an inconclusive outcome. The list shows a part of the results.
When you answer, write just the number.

The examples below pair each entry with its known result.
>>> recorded_measurement("COCCOC(=O)C1=C(C)NC(C)=C(C(=O)OC(C)C)C1c1cccc([N+](=O)[O-])c1 (configuration not stated)")
1.01
>>> recorded_measurement("COC(=O)C1=C(C)NC(C)=C(C(=O)OCCN(C)Cc2ccccc2)C1c1cccc([N+](=O)[O-])c1 (configuration not stated)")
1
>>> recorded_measurement("CC(C)[C@]12O[C@H]1[C@@H]1O[C@@]13[C@@]1(C)CCC4=C(COC4=O)[C@@H]1C[C@@H]1O[C@@]13C2=O")
0.993
>>> recorded_measurement("CC1(C)O[C@@H]2CC3C4C[C@H](F)C5=CC(=O)C=C[C@]5(C)[C@@]4(F)[C@@H](O)C[C@]3(C)[C@]2(C(=O)CO)O1 (some centres not stated)")
1.02
>>> recorded_measurement("Cc1cc(=O)c2c(o1)-c1c(cc(O)c(O)c1C(=O)O)OC2")
1.02

Record request: normalized growth value, item "Nc1nc(N)c2nc(-c3ccccc3)c(N)nc2n1"
1.01

If you can, please state the reported normalized growth value of CC1(C)O[C@@H]2CC3C4C[C@H](F)C5=CC(=O)C=CC5(C)C4C(O)CC3(C)[C@]2(C(=O)CO)O1 (some centres not stated) .
0.993

Item "CC(=O)Oc1cc(OC(C)=O)c2c(=O)c(-c3ccccc3)coc2c1" has what recorded normalized growth?
1

Record request: normalized growth value, item "COc1cccc2c1cc([N+](=O)[O-])c1c(C(=O)O)cc3c(c12)OCO3"
1.01

Which normalized growth value belongs to "Cn1c(=O)c2[nH]c(C3CCCC3)nc2n(C)c1=O" ?
1
